- target.of.assay: UDP-N-acetylmuramoylalanine--D-glutamate ligase (Leptospira interrogans serogroup Icterohaemorrhagiae serovar Lai (strain 56601))
- Sequence (Q8F7V4 whole entry): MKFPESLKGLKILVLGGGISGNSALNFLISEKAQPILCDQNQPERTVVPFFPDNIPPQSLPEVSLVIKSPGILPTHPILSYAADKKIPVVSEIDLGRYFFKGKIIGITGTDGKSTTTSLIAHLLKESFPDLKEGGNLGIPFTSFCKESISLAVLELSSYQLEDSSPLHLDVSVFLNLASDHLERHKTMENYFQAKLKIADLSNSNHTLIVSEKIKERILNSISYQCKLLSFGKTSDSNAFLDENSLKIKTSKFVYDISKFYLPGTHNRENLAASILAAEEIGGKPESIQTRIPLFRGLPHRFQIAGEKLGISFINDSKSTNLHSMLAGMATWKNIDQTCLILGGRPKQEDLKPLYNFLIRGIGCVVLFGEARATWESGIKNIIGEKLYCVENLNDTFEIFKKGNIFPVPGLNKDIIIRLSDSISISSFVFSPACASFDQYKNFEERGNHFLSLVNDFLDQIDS
- protocol.text: Inhibition Assay
- Source text: Inhibiton assay using MurgD.
Property: IC50; scope: individual compounds
Could you give me the number in µM? Just the number is fine.

INPUT: Entry O=C(O)c1cc(C(=O)O)cc(-c2ccc(/C=C3\SC(=S)N(c4ccc5c(c4)OCO5)C3=O)o2)c1 needs its IC50 filled in; supply it.
OUTPUT: 270

INPUT: Find the measured IC50 of C[C@H](NS(=O)(=O)Cc1ccc([N+](=O)[O-])cc1)C(=O)N[C@@H](C)P(=O)(O)CC(CCC(=O)O)C(=O)O (stereo partly drawn) [Phosphinate inhibitor 2] and report it.
OUTPUT: 78

INPUT: Using known records, supply IC50 for C[C@@H](NC(=O)C=Cc1ccc2c(c1)OCO2)P(=O)(O)CC(CCC(=O)O)C(=O)O (stereo partly drawn) [Phosphinate inhibitor 1]
OUTPUT: 95
